Test system: EPHA7
Conditions: concentration: 1 μM, replicates: in singlicate; n = 1;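 note: KINOMEscan kinase panel screen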
This section presents compounds with their documented %Inh values.
Reply with just the number (in %).

Examples with answers:
>>> assay_value("Cc1cccc(-c2nc(C)cc(Nc3ccncc3)n2)n1")
7
>>> assay_value("O=S(=O)(c1ccc(-c2ccnc3[nH]ccc23)cc1)N1CCCC1")
3
>>> assay_value("Cl.c1ccc(-c2n[nH]cc2-c2ccnc(-c3ccc(CN4CCOCC4)cc3)c2)nc1")
15
>>> assay_value("COc1ccccc1CNC(=O)c1cc(C(=O)c2ccccc2C)c[nH]1")
8
>>> assay_value("O=C(Nc1n[nH]c2cc(-c3cccc(F)c3F)ccc12)C1CC1")
0

Specify reported %Inh for the compound shown: Cc1cccc(-c2nc(Nc3ccncc3)c3ccccc3n2)n1 0

Specify reported %Inh for the compound shown: CS(=O)(=O)c1ccc(-c2nc3n(c2-c2ccncc2)CCC3)cc1 10

----------
Tested on: PHKG1
Details: concentration: 1 μM, replicates: in singlicate; n = 1
parameter_measured: %Inh (%)
Reply with just the number (in %).

Examples with answers:
>>> assay_value("Cc1ccc(-c2cc(-c3c[nH]nc3-c3ccccn3)ccn2)cc1")
0
>>> assay_value("COc1ccc2nc(-c3cccc(C)n3)nc(Nc3ccncc3)c2c1")
0
>>> assay_value("COC(=O)c1c(-c2ccccc2)c2cc(C(=O)O)ccc2c(=O)n1Cc1ccccc1")
0
>>> assay_value("Cc1cccc(-c2cc(Nc3ccncc3)c3ccccc3n2)n1")
0
>>> assay_value("COC(=O)c1c(-c2ccccc2)c2cc(OC)ccc2c(=O)n1Cc1ccccc1")
7
>>> assay_value("CC(C)(C)c1ccc(C(=O)Nc2cn3cc(-c4cccnc4)ccc3n2)cc1")
8
>>> assay_value("O=C(O)COc1ncnc2cc(-c3ccc4[nH]ncc4c3)sc12")
13
>>> assay_value("Cl.Oc1ccc(-c2nc(-c3ccccc3)[nH]c2-c2ccncc2)cc1")
49

Specify reported %Inh for the compound shown: COc1ccc(Nc2nccc(-c3cccc(NC(=O)c4cc5cc(F)ccc5[nH]4)c3)n2)cc1 19

----------
This section presents compounds with their documented %Inh values.
Test system: BTK
Details: concentration: 1 μM, replicates: in singlicate; n = 1
Reply with just the number (in %).

Examples with answers:
>>> assay_value("CC(C)(C)c1ccc(C(=O)Nc2cn3cc(Cl)ccc3n2)cc1")
0
>>> assay_value("COc1cccc(-c2cc(-c3c[nH]nc3-c3ccccn3)ccn2)c1 [GW680338]")
0

Specify reported %Inh for the compound shown: Clc1cc(Cl)cc(Nc2ccnc(Nc3cc(Cl)cc(Cl)c3)n2)c1 [GSK175726] 0

Specify reported %Inh for the compound shown: CN(C)CCN(C)C(=O)c1cc(-c2ccncc2)c(-c2ccc(Cl)c(O)c2)o1.Cl.Cl [SB-710397] 10

Specify reported %Inh for the compound shown: CC(=O)Nc1nc2cnc(Nc3cc(NC(=O)c4cccc(CCC#N)c4)ccc3C)nc2s1 32

Specify reported %Inh for the compound shown: COc1ccc(CNC(=O)NC2CCN(c3ccnc(Nc4cc(OC)c(OC)c(OC)c4)n3)C2)cc1 (stereo not shown) [GSK1379748] 32

Specify reported %Inh for the compound shown: CN1C(=O)C(Nc2ccc(Cl)c(C(=O)O)c2)=C(c2ccc(Cl)cc2)C1=O [SB-404290] 0

Specify reported %Inh for the compound shown: COc1ccc2nc(-c3cccc(C)n3)nc(Nc3ccncc3)c2c1 [GSK204919] 0

Specify reported %Inh for the compound shown: COc1cc2ncn(-c3cc(OCC4CCCO4)c(C(N)=O)s3)c2cc1OC (stereo not shown) [GSK204607] 0

Specify reported %Inh for the compound shown: O=C(Nc1n[nH]c2nc(-c3nccs3)c(Br)cc12)C1CC1 [SB-742251] 26

Specify reported %Inh for the compound shown: Cn1ccc2ncnc(Oc3ccc(Nc4nc5ccccc5[nH]4)cc3)c21 0

Specify reported %Inh for the compound shown: Cc1cccc(-c2nc(Nc3ccc4[nH]ncc4c3)c3ccccc3n2)n1 [GW857175] 10

Specify reported %Inh for the compound shown: Cc1nnc(-c2ccc3occ(-c4ccc(S(C)=O)cc4)c3c2)[nH]1 (stereo not shown) 0

----------
System: ABL1-nonphosphorylated
Conditions: concentration: 1 μM, replicates: in singlicate; n = 1
This section presents molecules with their documented %Inh values.
The reply must contain the numeric value and, after it, the unit.

Examples with answers:
>>> assay_value("CC(=O)Nc1nc2cnc(Nc3cc(NC(=O)c4cccc(CCC#N)c4)ccc3C)nc2s1")
"94.8%"
>>> assay_value("CCn1c(-c2cccnc2O)nc2cnccc21 [SB-736715]")
"43%"
>>> assay_value("Cl.Oc1ccc(-c2nc(-c3ccccc3)[nH]c2-c2ccncc2)cc1 [SB-428218]")
"72%"

Specify reported %Inh for the molecule shown: O=C(O)COc1ncnc2cc(-c3ccc4[nH]ncc4c3)sc12 33%

Specify reported %Inh for the molecule shown: Cc1cc(-c2ccc3c(c2)CC[C@@H](N[C@@H](C)c2ccccc2)C3)cnc1N.Cl [GW412617] 8%

----------
This section presents compounds with their documented %Inh values.
System: AKT1
Conditions: concentration: 1 μM, replicates: in singlicate; n = 1
Reply with just the number (in %).

>>> assay_value("COc1cccc(-c2cc(-c3c[nH]nc3-c3ccccn3)ccn2)c1")
0

Specify reported %Inh for the compound shown: COc1ccc(CNC(=O)NC2CCN(c3ccnc(Nc4cc(OC)c(OC)c(OC)c4)n3)C2)cc1 (stereo not drawn) 0

Specify reported %Inh for the compound shown: Cc1cccc(-c2nc(-c3ccc(S(C)(=O)=O)cc3)sc2-c2ccnc(NCCc3ccccc3)c2)c1 14

Specify reported %Inh for the compound shown: O=C(O)COc1ncnc2cc(-c3ccc4[nH]ncc4c3)sc12 0

Specify reported %Inh for the compound shown: Cl.c1ccc(-c2n[nH]cc2-c2ccnc(-c3ccc(CN4CCOCC4)cc3)c2)nc1 17

Specify reported %Inh for the compound shown: Cc1c(O)cccc1Nc1ccnc2ccc(C(F)(F)F)cc12.Cl 0

Specify reported %Inh for the compound shown: COc1ccccc1-c1ccc2c(NC(=O)C3CC3)n[nH]c2n1 0

Specify reported %Inh for the compound shown: CCn1c(-c2cccnc2O)nc2cnccc21 2

Specify reported %Inh for the compound shown: Cl.NC(=O)c1cccc(Nc2nccc(Nc3ccc(Oc4cccc(Cl)c4)c(Cl)c3)n2)c1 0

----------
Test system: CDK2
Conditions: concentration: 1 μM, replicates: in singlicate; n = 1
parameter_measured: %Inh (%)
Reply with just the number (in %).

Examples with answers:
>>> assay_value("COc1ccc(C2=C(Nc3cccc(C(=O)O)c3)C(=O)NC2=O)cc1")
12
>>> assay_value("COC(=O)c1c(-c2ccccc2)c2cc(C(=O)O)ccc2c(=O)n1Cc1ccccc1")
0
>>> assay_value("O=C(Nc1n[nH]c2nc(-c3nccs3)c(Br)cc12)C1CC1")
81

Specify reported %Inh for the compound shown: COc1ccc(Nc2nccc(-c3cccc(NC(=O)c4cc5cc(F)ccc5[nH]4)c3)n2)cc1 17

Specify reported %Inh for the compound shown: COc1cccc(NC(=O)NC2CCN(c3ccnc(Nc4ccc(F)cc4)n3)C2)c1 (stereo not shown) 0

Specify reported %Inh for the compound shown: Fc1cc(Cl)ccc1Nc1ccnc2cc(-c3ccc(CN4CCCCC4)o3)ccc12 0

Specify reported %Inh for the compound shown: Cc1ccc(NC(=O)Nc2cc(C(C)(C)C)nn2-c2ccccc2)cc1 0

----------
Tested on: WEE2
Conditions: concentration: 1 μM, replicates: in singlicate; n = 1
parameter_measured: %Inh (%)
Reply with just the number (in %).

Examples with answers:
>>> assay_value("CS(=O)(=O)c1ccc(-c2c(-c3ncn[nH]3)sc(N3CCOCC3)c2C#N)cc1")
10
>>> assay_value("CCCc1ccc(S(=O)(=O)NC2CCN(c3ccnc(Nc4ccc(F)cc4)n3)C2)cc1 (stereo not drawn)")
0
>>> assay_value("Cl.c1ccc(-c2n[nH]cc2-c2ccnc(-c3ccc(CN4CCOCC4)cc3)c2)nc1")
0

Specify reported %Inh for the compound shown: Cl.Oc1ccc(-c2nc(-c3ccccc3)[nH]c2-c2ccncc2)cc1 8

----------
System: DAPK1
Conditions: concentration: 1 μM, replicates: in singlicate; n = 1
parameter_measured: %Inh
The reply must contain the numeric value and, after it, the unit.

>>> assay_value("COc1ccccc1-c1ccc2c(NC(=O)C3CC3)n[nH]c2n1 [SB-711239]")
"0%"
>>> assay_value("O=C(Nc1ccccc1)Nc1cccc(Oc2ccc3nccn3n2)c1")
"10%"

Specify reported %Inh for the molecule shown: Cc1cccc(-c2cc(Nc3ccncc3)c3ccccc3n2)n1 [GSK223675] 18%

Specify reported %Inh for the molecule shown: Cn1ccc2ncnc(Oc3ccc(Nc4nc5ccccc5[nH]4)cc3)c21 0%

Specify reported %Inh for the molecule shown: O=C(Nc1n[nH]c2nc(-c3nccs3)c(Br)cc12)C1CC1 [SB-742251] 0%

Specify reported %Inh for the molecule shown: Cn1cncc1-c1ccc2ncnc(Nc3ccc(OCc4ccccc4)cc3)c2c1 [GW320571] 0%

Specify reported %Inh for the molecule shown: Cc1ccc(-c2cc(-c3c[nH]nc3-c3ccccn3)ccn2)cc1 [GW684088] 11%
